Attribute: TGI
# Tested on: NCI-H226 lung
# procedure details: NCI tumour cell line growth inhibition, 48 h

Item CC(C)[C@H](NC(=O)[C@@H](O)[C@H](N)Cc1ccccc1)C(=O)N[C@@H](Cc1ccccc1)C(=O)O has what recorded TGI?
> 100 µM

Item O=CN/C=C/c1ccccc1O has what recorded TGI?
> 100 µM

Item Nc1nc(Cl)cc(NCC2(CO)CCC(OCc3ccccc3)C2)n1 (stereo unspecified) has what recorded TGI?
84.1 µM

Item CC1(c2nc3cc(Cl)c(Cl)cc3[nH]2)CCC(C(=O)O)C(C)(C)O1 (stereo unspecified) has what recorded TGI?
> 100 µM

Item NS(=O)(=O)c1ccc(NCc2cnc3ccccc3c2)cc1 has what recorded TGI?
> 100 µM
